Assay: Cmax in ICR mouse at 2 mg/kg, po measured after 0.0833 to 120 hrs by LC-MS-MS analysis
Format: ADME, organism-based
Set-up: dose 2 mg/kg, route oral
Settings: in vivo
assay_endpoint: Cmax (ng/mL)

- CS(=O)(=O)n1cc2c(n1)CN([C@H]1CO[C@H](c3cc(F)ccc3F)[C@@H](N)C1)C2: 798
- CS(=O)(=O)n1cc2c(n1)CN([C@H]1CO[C@H](c3cc(F)ccc3F)[C@@H](N)[C@H]1F)C2: 1580
- CS(=O)(=O)n1cc2c(n1)CN([C@@H]1C[C@H](N)[C@@H](c3cc(F)ccc3F)O[C@@H]1C(F)(F)F)C2: 352
- CS(=O)(=O)n1cc2c(n1)CN([C@@H]1C[C@H](N)[C@@H](c3cc(F)c(F)cc3F)O[C@@H]1C(F)(F)F)C2: 999
